Let's look at some compounds and their measured Ki.
- Target under test: UniProt P52333
- Sequence (P52333 whole entry): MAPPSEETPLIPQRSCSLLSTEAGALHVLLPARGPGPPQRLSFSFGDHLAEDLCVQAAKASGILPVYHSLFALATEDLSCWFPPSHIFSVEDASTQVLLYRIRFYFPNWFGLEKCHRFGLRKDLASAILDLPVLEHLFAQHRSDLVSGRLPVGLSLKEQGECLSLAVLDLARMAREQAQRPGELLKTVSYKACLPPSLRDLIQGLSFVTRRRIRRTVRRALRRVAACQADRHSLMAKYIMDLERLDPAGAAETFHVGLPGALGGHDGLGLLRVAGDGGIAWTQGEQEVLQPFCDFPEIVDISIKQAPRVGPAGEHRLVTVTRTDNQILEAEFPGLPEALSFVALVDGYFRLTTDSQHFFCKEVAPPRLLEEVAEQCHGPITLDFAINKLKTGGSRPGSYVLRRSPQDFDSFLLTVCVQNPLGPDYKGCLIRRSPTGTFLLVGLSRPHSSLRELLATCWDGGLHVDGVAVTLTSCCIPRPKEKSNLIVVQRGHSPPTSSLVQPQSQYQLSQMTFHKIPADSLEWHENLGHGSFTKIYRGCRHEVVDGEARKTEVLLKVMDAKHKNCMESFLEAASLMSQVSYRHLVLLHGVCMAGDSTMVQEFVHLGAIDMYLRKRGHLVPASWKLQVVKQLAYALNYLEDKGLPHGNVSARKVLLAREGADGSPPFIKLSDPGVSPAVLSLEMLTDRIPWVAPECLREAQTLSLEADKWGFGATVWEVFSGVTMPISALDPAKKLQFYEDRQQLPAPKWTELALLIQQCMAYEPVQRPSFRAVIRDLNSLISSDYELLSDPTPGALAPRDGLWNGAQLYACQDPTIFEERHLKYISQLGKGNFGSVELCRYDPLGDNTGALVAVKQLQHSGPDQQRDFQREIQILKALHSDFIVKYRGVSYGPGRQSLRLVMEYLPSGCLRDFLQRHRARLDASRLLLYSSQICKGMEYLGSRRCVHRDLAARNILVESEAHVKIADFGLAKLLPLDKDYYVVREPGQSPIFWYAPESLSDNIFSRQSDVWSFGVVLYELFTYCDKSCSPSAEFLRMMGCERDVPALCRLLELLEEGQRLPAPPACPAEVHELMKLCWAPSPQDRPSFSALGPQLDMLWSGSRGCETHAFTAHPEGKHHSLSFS
- Run description: JAK3 inhibition assay (33P incorporation into poly(Glu)4Tyr)
- Assay type: biochemical
- Reported conditions: Table 6; enzyme inhibition data (Ki)
Property label: Ki

Compound	Assay result
O=C(c1cc(-c2ccnc3[nH]ccc23)c[nH]1)N1CCCC(O)C1 (centres unmarked)	500 to 5000 nM
O=C(c1cc(-c2c(F)cnc3[nH]ccc23)c[nH]1)N(CCC(F)(F)F)CC1CC1	< 500 nM
CCNC(=O)c1cccc(-c2ccnc3[nH]ccc23)c1	500 to 5000 nM
c1cc(-c2cn[nH]c2)c2cc[nH]c2n1	< 500 nM
CC1CCC(C)N1C(=O)c1cc(-c2ccnc3[nH]ccc23)c[nH]1 (centres unmarked)	< 500 nM
